Assay: yeast display, Sf9 membrane polyspecificity reagent, FACS + sequencing; frameworks hold sequencing errors
MEASUREMENT TYPE: polyreactivity (PSR sort gate)

>>> recorded_result("QVQLVESGGGLVQAGGSLRLSCAASGFTFSLYAMGWYRQAPGKDRELVASISRSGGSTYYADSVKGRFTISRDNAKYTVYIQMYSLKPEDTAVYYCAARWRPYKYDSWGQGTQVTVSS")
"high polyreactivity"
>>> recorded_result("QVQLVESGGGLVQAGGSLRLSCAASGSIFGRYAMGWYRQAPGKERELVAAISYSNARTYYADSVKGRFTISRDNAKNTVYLQMNSLKPEDTAVYYCAVLRRYLVGNLVGYNYWGQGTQVTVSS")
"high polyreactivity"

Every entry's value here was drawn from the nanobody polyreactivity screen of Harvey et al. (2022).
